Taken from paper PMC9940855.

Target: hCA IX (Homo sapiens, UniProt Q16790)
Note to self: class labels come from recorded Ki, ranges listed here: Low = under 30 nM, Mid = from 30 nM up to 80 nM, High = 80 nM and over

Some solved entries appear below for comparison.
NS(=O)(=O)c1ccc(N2CC[C@@H](NC(=O)Nc3ccc4c(c3)OCCO4)C2)nc1 [15a] :: High
NS(=O)(=O)c1ccc(N2CC[C@H](NC(=S)Nc3ccc(C4c5ccc(O)cc5Oc5cc(O)ccc54)c(C(=O)O)c3)C2)nc1 [17b] :: Low
NS(=O)(=O)c1ccc(N2CC[C@@H](NC(=S)Nc3ccccc3F)C2)nc1 [21a] :: High
NS(=O)(=O)c1cccc(NC(=S)N[C@H]2CCN(c3cccc([N+](=O)[O-])n3)C2)c1 [38b] :: Low
NS(=O)(=O)c1ccc(N2CC[C@H](NC(=S)Nc3ccccc3)C2)nc1 [9b] :: Mid

The entry to classify is NS(=O)(=O)c1ccc(NC(=S)N[C@@H]2CCN(c3ccccn3)C2)cc1 [35a] ; which class holds it?
Low

The entry to classify is NS(=O)(=O)c1ccc(NC(=O)N[C@@H]2CCN(c3cccc([N+](=O)[O-])n3)C2)cc1 [43a] ; which class holds it?
High

The entry to classify is NS(=O)(=O)c1ccc(N2CC[C@@H](NC(=O)Nc3ccc(Cl)c(C(F)(F)F)c3)C2)nc1 [10a] ; which class holds it?
High

The entry to classify is NS(=O)(=O)c1ccc(N2CC[C@H](NC(=S)Nc3ccc(F)cc3)C2)nc1 [8b] ; which class holds it?
Low

The entry to classify is NS(=O)(=O)c1ccc(N2CC[C@H](NC(=O)Nc3cc(C(F)(F)F)cc(C(F)(F)F)c3)C2)nc1 [16b] ; which class holds it?
Mid

The entry to classify is NS(=O)(=O)c1ccc(N2CC[C@@H](NC(=O)Nc3ccc(F)cc3)C2)nc1 [7a] ; which class holds it?
Mid

The entry to classify is NS(=O)(=O)c1ccc(NC(=O)N[C@H]2CCN(c3ccc(C(F)(F)F)cn3)C2)cc1 [45b] ; which class holds it?
Mid

The entry to classify is NS(=O)(=O)c1ccc(N2CC[C@@H](NC(=O)NS(=O)(=O)c3ccccc3Cl)C2)nc1 [25a] ; which class holds it?
Low
